The origin of these recorded values is paper PMC10793205.

Target: oxy-Hb (Homo sapiens, UniProt P68871+P69905)
Sequence (P69905 2-142 limits assumed): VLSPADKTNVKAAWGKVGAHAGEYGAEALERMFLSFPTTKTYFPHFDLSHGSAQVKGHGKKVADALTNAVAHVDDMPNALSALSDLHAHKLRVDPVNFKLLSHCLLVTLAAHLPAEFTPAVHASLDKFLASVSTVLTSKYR
Sequence (P68871 2-147 limits assumed): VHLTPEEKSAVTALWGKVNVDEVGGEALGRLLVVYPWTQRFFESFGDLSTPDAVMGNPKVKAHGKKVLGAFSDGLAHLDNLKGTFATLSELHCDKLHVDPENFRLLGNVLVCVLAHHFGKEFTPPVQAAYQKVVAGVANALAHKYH
Test: Oxidation of purified oxy-Hb to met-Hb (UV-vis)
Assay type: biochemical
Details: 10 μM agent, oxy-Hb 40 μM, 1–3 h/20 °C
Source text: As such, it was important to examine the effect of the Dp4e4mT complexes on oxy-Hb and oxy-Mb oxidation (Fig. 6 and 7). Comparisons were made to three controls, namely DFO, Dp44mT, and DpC, as well as their Fe(III) complexes. […] In contrast, the Fe(III) complexes of Dp44mT and DpC were positive controls, as they induce oxidation of oxy-Mb.[28,39,42] […]
Measured Parameter: oxy-Hb oxidation, purified oxy-Hb (in words)

- CCN(C)C([S-])=NN=C(c1ccccn1)c1ccccn1.CCN(C)C([S-])=NN=C(c1ccccn1)c1ccccn1.[Co+3] [[Co(Dp4e4mT)2]^+]: minimal impact
- CCN(C)C([S-])=NN=C(c1ccccn1)c1ccccn1.[Cl-].[Pd+2] [[Pd(Dp4e4mT)Cl]]: minimal impact
- CCN(C)C([S-])=NN=C(c1ccccn1)c1ccccn1.CCN(C)C([S-])=NN=C(c1ccccn1)c1ccccn1.[Ni+2] [[Ni(Dp4e4mT)2]]: minimal impact
